Molecular target: T1, gp130 on HepG2 B6 cells (UniProt P40189 23-918, limits assumed)
T1 sequence (looked up): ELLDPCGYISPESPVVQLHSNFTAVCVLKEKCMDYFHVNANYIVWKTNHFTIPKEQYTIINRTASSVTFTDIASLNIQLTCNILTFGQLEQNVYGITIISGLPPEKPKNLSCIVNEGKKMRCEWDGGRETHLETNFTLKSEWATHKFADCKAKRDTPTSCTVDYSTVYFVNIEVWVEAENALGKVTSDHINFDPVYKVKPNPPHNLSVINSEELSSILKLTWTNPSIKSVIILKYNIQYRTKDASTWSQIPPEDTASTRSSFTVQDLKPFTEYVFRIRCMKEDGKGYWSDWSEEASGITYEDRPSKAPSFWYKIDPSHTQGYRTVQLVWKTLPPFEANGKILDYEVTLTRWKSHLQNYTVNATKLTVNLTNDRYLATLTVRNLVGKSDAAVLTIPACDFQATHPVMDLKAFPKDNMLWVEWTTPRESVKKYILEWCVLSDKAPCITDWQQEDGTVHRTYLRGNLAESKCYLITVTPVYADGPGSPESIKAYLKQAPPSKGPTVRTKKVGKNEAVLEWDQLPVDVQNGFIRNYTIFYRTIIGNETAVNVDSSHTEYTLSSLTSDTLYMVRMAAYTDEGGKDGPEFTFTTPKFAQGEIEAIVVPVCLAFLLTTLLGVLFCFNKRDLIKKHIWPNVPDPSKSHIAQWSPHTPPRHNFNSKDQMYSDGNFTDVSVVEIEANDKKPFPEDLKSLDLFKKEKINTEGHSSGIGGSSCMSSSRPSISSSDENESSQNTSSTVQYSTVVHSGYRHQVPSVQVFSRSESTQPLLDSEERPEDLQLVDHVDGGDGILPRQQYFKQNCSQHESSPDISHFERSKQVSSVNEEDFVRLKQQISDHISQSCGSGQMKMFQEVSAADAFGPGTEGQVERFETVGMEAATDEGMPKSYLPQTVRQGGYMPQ
Assay: cell-based or functional assay
Result Type: sPAP HepG2 B6 assay: Expt 2 % (EC50 as % of wild type EC50) (%)
# number only, unit % dropped from output

Please review the following examples before continuing.
OSM-GST mutant Y10A (ligand, not shown: a dimerising Fc or GST; large carriers; small tags and cut ends, Alanine mutant of m4; also called (4)Y10A; 4 Y10A) AAIGSCSKEARVLLGQLQKQTDLMQDTSRLLDPYIRIQGLDVPKLREHCRERPGAFPSEETLRGLGRRGFLQTLNATLGCVLHRLADLEQRLPKAQDLERSGLNIEDLEKLQMARPNILGLRNNIYCMAQLLDNSDTAEPTKAGRGASQPPTPTPASDAFQRKLEGCRFLHGYHRFMHSVGRVFSKWGESPNRSRR    256
OSM-GST mutant Q18A (ligand, Alanine mutant of m4; also called (11)Q18A; 11 Q18A; not shown: Its linker is left out) AAIGSCSKEYRVLLGQLAKQTDLMQDTSRLLDPYIRIQGLDVPKLREHCRERPGAFPSEETLRGLGRRGFLQTLNATLGCVLHRLADLEQRLPKAQDLERSGLNIEDLEKLQMARPNILGLRNNIYCMAQLLDNSDTAEPTKAGRGASQPPTPTPASDAFQRKLEGCRFLHGYHRFMHSVGRVFSKWGESPNRSRR    68
OSM-GST mutant M113A (ligand, not shown: a dimerising Fc or GST; large carriers; small tags and cut ends, Alanine mutant of m4; also called (16)M113; 16 M113A) AAIGSCSKEYRVLLGQLQKQTDLMQDTSRLLDPYIRIQGLDVPKLREHCRERPGAFPSEETLRGLGRRGFLQTLNATLGCVLHRLADLEQRLPKAQDLERSGLNIEDLEKLQAARPNILGLRNNIYCMAQLLDNSDTAEPTKAGRGASQPPTPTPASDAFQRKLEGCRFLHGYHRFMHSVGRVFSKWGESPNRSRR    78
OSM-GST mutant Y126A (ligand, not shown: a dimerising Fc or GST; large carriers; small tags and cut ends, Alanine mutant of m4; also called (24)Y126A; 24 Y126A) AAIGSCSKEYRVLLGQLQKQTDLMQDTSRLLDPYIRIQGLDVPKLREHCRERPGAFPSEETLRGLGRRGFLQTLNATLGCVLHRLADLEQRLPKAQDLERSGLNIEDLEKLQMARPNILGLRNNIACMAQLLDNSDTAEPTKAGRGASQPPTPTPASDAFQRKLEGCRFLHGYHRFMHSVGRVFSKWGESPNRSRR    32
OSM-GST mutant P116A (ligand, not shown: a dimerising Fc or GST; large carriers; small tags and cut ends, Alanine mutant of m4; also called (17)P116A; 17 P116A) AAIGSCSKEYRVLLGQLQKQTDLMQDTSRLLDPYIRIQGLDVPKLREHCRERPGAFPSEETLRGLGRRGFLQTLNATLGCVLHRLADLEQRLPKAQDLERSGLNIEDLEKLQMARANILGLRNNIYCMAQLLDNSDTAEPTKAGRGASQPPTPTPASDAFQRKLEGCRFLHGYHRFMHSVGRVFSKWGESPNRSRR    47

Here is another binder to look at.
Challenge: Return sPAP HepG2 B6 assay: Expt 2 % (EC50 as % of wild type EC50) for the following binder: OSM-GST mutant G15A (ligand, Alanine mutant of m4; also called (8)G15A; 8 G15A; not shown: Its linker is left out) AAIGSCSKEYRVLLAQLQKQTDLMQDTSRLLDPYIRIQGLDVPKLREHCRERPGAFPSEETLRGLGRRGFLQTLNATLGCVLHRLADLEQRLPKAQDLERSGLNIEDLEKLQMARPNILGLRNNIYCMAQLLDNSDTAEPTKAGRGASQPPTPTPASDAFQRKLEGCRFLHGYHRFMHSVGRVFSKWGESPNRSRR
Response given: 55
